The values you see were collected from paper PMC4809600.

- assay.notes: Stability in chronic wound extracts (CWE), capillary zone electrophoresis
- Format: in vitro ADME, human
- condition.parameters: 1 mg/ml in PBS mixed 1:1 with CWE (1 mg/ml protein, pool of 5 donors) in PBS, 37°C, 4 h; CZE, UV 200 nm, ratio to imidazole, 0 h = 100%; experiment 2 of 3
Where no end group is shown, it is not given here.
measured.property: Percentage intact, CWE 4h (%)

substance="SHREFPFYGDYGS [mad-Hst1]" measured_property="Percentage intact, CWE 4h" obs_value=100.271
substance="cyclo(DNLPETGGDSHEKRHHGYRRKFHEKHHSHREFPFYGDYGSNYLY) [cHst1]" measured_property="Percentage intact, CWE 4h" obs_value=88.931
substance="RKFHEKHHSHREFPFYGDYGSNYLYDN [Hst2]" measured_property="Percentage intact, CWE 4h" obs_value=80.0345
substance="DSHEKRHHGYRRKFHEKHHSHREFPFYGDYGSNYLYDN [Hst1]" measured_property="Percentage intact, CWE 4h" obs_value=76.5418

----------
- assay.notes: Stability in CWE with protease inhibitor cocktail (PIC), capillary zone electrophoresis
- Assay type: in vitro ADME, human
- condition.parameters: 1 mg/ml in PBS mixed 1:1 with CWE (1 mg/ml protein, pool of 5 donors) in PBS containing PIC (final 1:140 v/v), 37°C, 4 h; CZE, ratio to imidazole, 0 h = 100%; experiment 1 of 3
Where no end group is shown, it is not given here.
measured.property: Percentage intact, CWE + PIC 4h (%)

substance="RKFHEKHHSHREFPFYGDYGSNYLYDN [Hst2]" measured_property="Percentage intact, CWE + PIC 4h" unit_tag=% obs_value=91.5351
substance="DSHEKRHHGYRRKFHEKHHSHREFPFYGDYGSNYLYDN [Hst1]" measured_property="Percentage intact, CWE + PIC 4h" unit_tag=% obs_value=81.1086
substance="SHREFPFYGDYGS [mad-Hst1]" measured_property="Percentage intact, CWE + PIC 4h" unit_tag=% obs_value=97.1353
substance="cyclo(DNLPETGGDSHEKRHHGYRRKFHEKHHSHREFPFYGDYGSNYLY) [cHst1]" measured_property="Percentage intact, CWE + PIC 4h" unit_tag=% obs_value=81.2396

----------
- assay.notes: Stability in CWE with protease inhibitor cocktail (PIC), capillary zone electrophoresis
- Assay type: in vitro ADME, human
- condition.parameters: 1 mg/ml in PBS mixed 1:1 with CWE (1 mg/ml protein, pool of 5 donors) in PBS containing PIC (final 1:140 v/v), 37°C, 72 h; CZE, ratio to imidazole, 0 h = 100%; experiment 3 of 3
Where no end group is shown, it is not given here.
measured.property: Percentage intact, CWE + PIC 72h (%)

substance="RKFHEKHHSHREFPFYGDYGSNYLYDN [Hst2]" obs_value=68.9587

I = cyclo(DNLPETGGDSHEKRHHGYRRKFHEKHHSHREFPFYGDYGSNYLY) [cHst1]
II = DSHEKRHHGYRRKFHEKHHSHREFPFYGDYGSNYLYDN [Hst1]
III = SHREFPFYGDYGS [mad-Hst1]
(Q) I would appreciate it if you could sort these 3 substances by Percentage intact, CWE + PIC 72h, starting from the smallest number. I would appreciate it if you listed the labels in the requested order.
(A) II, I, III
